- test_name: Peptide gelation (tilted tube / inverted vial test, minimum gelation concentration)
- Type: physicochemical
- run_conditions: in PBS; '/' = no gel
Square brackets hold non-standard residues; d marks the D form. Ends that are not written are not given here. Phe∗ = not defined here; Trp∗ = not defined here
measurement_name: Minimum gelation concentration (w/v % in PBS) (w/v %)
All answers are understood in w/v %, so give the number only.

Entry FQFQFK-NH2 [peptide 16, H-Phe-Gln-Phe*-Gln-Phe-Lys-NH2] ; Minimum gelation concentration (w/v % in PBS) = 2

Per the record, H-Phe-Glu-Trp*-Gln-Phe-Lys-NH2 (H-FE[Trp∗]QFK-NH2; not fully specified; reading uncertain) [compound 21] has Minimum gelation concentration (w/v % in PBS) of 2

Form: substance = WEWQWK-NH2 [peptide 12, H-Trp-Glu-Trp*-Gln-Trp-Lys-NH2] ; Minimum gelation concentration (w/v % in PBS) = 1

KFQFEF-NH2 [peptide 18, H-Lys-Phe-Gln-Phe*-Glu-Phe-NH2] yielded Minimum gelation concentration (w/v % in PBS) of 2

Summary for this substance, H-Phe-Glu-Phe*-Gln-Trp-Lys-NH2 (H-FE[Phe∗]QWK-NH2; not fully specified; reading uncertain) [compound 15] : Minimum gelation concentration (w/v % in PBS) is 2

Record FEFQFK-NH2 [peptide 2, H-Phe-Glu-Phe*-Gln-Phe-Lys-NH2] , field Minimum gelation concentration (w/v % in PBS): 2

Measured Minimum gelation concentration (w/v % in PBS), H-Lys-Phe-Gln-Phe*-Glu-Phe-OH (H-KFQ[Phe∗]EF-OH; not fully specified; reading uncertain) [compound 26] : 2

Query H-IEIQIK-NH2 [compound 5, H-Ile-Glu-Ile-Gln-Ile-Lys-NH2] yields Minimum gelation concentration (w/v % in PBS) of 2

Briefly, Minimum gelation concentration (w/v % in PBS) measured for H-Phe-Glu-Phe*-Asn-Phe-Lys-NH2 (H-FE[Phe∗]NFK-NH2; not fully specified; reading uncertain) [compound 11] : 1

// Minimum gelation concentration (w/v % in PBS) value for H-Phe-Glu-Phe*-Asn-Phe-Lys-OH (H-FE[Phe∗]NFK-OH; not fully specified; reading uncertain) [compound 10] : 1

What the record says about H-Trp-Glu-Phe*-Gln-Phe-Lys-NH2 (H-WE[Phe∗]QFK-NH2; not fully specified; reading uncertain) [compound 14] : Minimum gelation concentration (w/v % in PBS) is 2

Per the records, this substance ( H-Phe-Glu-Phe*-Lys-Phe-Ser-NH2 (H-FE[Phe∗]KFS-NH2; not fully specified; reading uncertain) [compound 20] ) has Minimum gelation concentration (w/v % in PBS) equal to 1
